Task for the reader: assign each of the following compounds its reported AK.
# Test system: SH-SY5Y cells
# experimental.protocol: AK (adenylate kinase) release ToxiLight cytotoxicity assay; also: reference of the scale not given here
# conditions.used: PKIS2 primary screening
Give bare numbers.

For orientation, consider the following solved cases.
COc1cccc(-n2cnc3c(N)ncnc32)c1 [UNC10225454A]
83.60
Fc1cccc(COc2ccc(Nc3ncnc4sc(-c5ccc[nH]5)cc34)cc2Cl)c1 [UNC10225101A]
123.35
COc1cccc2c(-c3ccncc3)c(-c3ccc(F)cc3)nn12 [UNC10225305A]
95.93

Now for another entry.
Ask: Data request, read-out AK, for CC(C)(C)c1ccc2nccc(Nc3cccc(O)c3)c2c1 [UNC10225361A]
Result: 101.00
